ASSAYED_TARGET: Beta-secretase 1 (Homo sapiens, UniProt P56817)
Sequence (P56817 whole entry): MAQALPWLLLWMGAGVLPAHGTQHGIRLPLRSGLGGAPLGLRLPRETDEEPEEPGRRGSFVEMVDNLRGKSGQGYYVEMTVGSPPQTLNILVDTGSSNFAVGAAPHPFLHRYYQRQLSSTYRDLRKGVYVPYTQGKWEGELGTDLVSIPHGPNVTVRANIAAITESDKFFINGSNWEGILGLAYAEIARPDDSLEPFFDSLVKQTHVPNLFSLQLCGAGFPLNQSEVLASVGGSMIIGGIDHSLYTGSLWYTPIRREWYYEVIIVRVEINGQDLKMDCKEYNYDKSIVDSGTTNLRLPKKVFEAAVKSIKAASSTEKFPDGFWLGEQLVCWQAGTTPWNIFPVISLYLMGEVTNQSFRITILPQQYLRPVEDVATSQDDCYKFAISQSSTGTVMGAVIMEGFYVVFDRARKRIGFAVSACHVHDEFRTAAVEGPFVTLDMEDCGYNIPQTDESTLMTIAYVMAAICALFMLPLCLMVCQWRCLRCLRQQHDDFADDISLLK
PROTOCOL_DESCRIPTION: Ratio of IC50 for BACE1 in human KBV1 cells expressing APP 751 Swedish mutant in absence of tariquidar to IC50 for BACE1 in human KBV1 cells expressing APP 751 Swedish mutant in presence of tariquidar
Format: cell-based
Listed here: items and their measured Ratio IC50.

Here is how some compounds turned out for Ratio IC50.
{"COMPOUND_SMILES": "COc1ccc(-c2nsc(C)c2C(=O)/N=C(\\N)NCc2cc(Cl)c(NC(C)=O)c(Cl)c2)cc1", "ASSAYED_TARGET": "Beta-secretase 1 (Homo sapiens, UniProt P56817)", "OBSERVED_MEASUREMENT": "> 32"}
{"COMPOUND_SMILES": "COc1ccc(-c2nsc(C)c2C(=O)/N=C(\\N)NCc2cc(Cl)c(NC(=O)CN3CCC3)c(Cl)c2)cc1", "ASSAYED_TARGET": "Beta-secretase 1 (Homo sapiens, UniProt P56817)", "OBSERVED_MEASUREMENT": 23}
{"COMPOUND_SMILES": "COc1ccc(-c2nsc(C)c2C(=O)/N=C(\\N)NCc2cc(C)c(NC(=O)CN3CCC3)c(Cl)c2)cc1", "ASSAYED_TARGET": "Beta-secretase 1 (Homo sapiens, UniProt P56817)", "OBSERVED_MEASUREMENT": 36}
{"COMPOUND_SMILES": "COc1ccc(-c2nsc(C)c2C(=O)/N=C(\\N)NCc2cc(Cl)c(N)c(Cl)c2)cc1", "ASSAYED_TARGET": "Beta-secretase 1 (Homo sapiens, UniProt P56817)", "OBSERVED_MEASUREMENT": 1.7}

From here, focus on the item given below.
Given `COc1ccc(-c2noc(C)c2C(=O)/N=C(\N)NCc2cc(Cl)cc(Cl)c2)cc1` , respond with its Ratio IC50. 0.8

----------
ASSAYED_TARGET: Beta-secretase 1 (Homo sapiens)
Recorded pKi values for a group of compounds are listed next.
Reminder that pKi is minus the log10 of a molar concentration.

Complete the entry with pKi for `COc1ccc(-c2nsc(C)c2C(=O)/N=C(/N)NCc2cc(Cl)c(N)c(Cl)c2)cc1` 7.40

Tell me its pKi given `COc1ccc(-c2nsc(C)c2C(=O)/N=C(\N)NCc2cc(Cl)c(NS(C)(=O)=O)c(Cl)c2)cc1` as the entry. 6.55

Please list pKi recorded for the compound `CCC/C=C/c1cc(Cl)cc(CN=C(N)NC(=O)c2c(-c3ccc(OC)cc3)noc2C)c1` 6.07

For the compound `COc1ccc(-c2noc(C)c2C(=O)NC(N)=NCc2cc(Cl)c(NC(=O)CS(C)(=O)=O)c(Cl)c2)cc1` , give its measured pKi value. 7.52

----------
PROTOCOL_DESCRIPTION: Plasma concentration in rat at 5 mg/kg, sc measured after 5 hrs by LC/MS/MS analysis
Type: ADME, organism-based
Parameters: dose 5 mg/kg, route subcutaneous
MEASURED_QUANTITY: concentration at 5 h (nM)
Report the figure in nM without appending any unit label.

Kindly indicate its recorded concentration at 5 h. Item: `COc1ccc(-c2nsc(C)c2C(=O)/N=C(\N)NCc2cc(C)c(NC(=O)CN3CCC3)c(Cl)c2)cc1` 378

----------
ASSAYED_TARGET: Beta-secretase 1 (Homo sapiens)
Each entry below lists one item and its recorded pKi value.
Quick note: pKi values are minus log10 of concentrations in mol/L.

Consider the worked cases shown below.
{"COMPOUND_SMILES": "COc1ccc(-c2noc(C)c2C(=O)NC(N)=NCc2cc(Cl)c(NC(=O)CSC)c(Cl)c2)cc1", "OBSERVED_MEASUREMENT": 7.30}
{"COMPOUND_SMILES": "COc1ccc(-c2noc(C)c2C(=O)NC(N)=NCc2cc(Cl)cc(-c3ccsc3)c2)cc1", "OBSERVED_MEASUREMENT": 5.92}
{"COMPOUND_SMILES": "COc1ccc(-c2noc(C)c2C(=O)NC(N)=NCc2cc(C)c(NC(=O)CCSC)c(Cl)c2)cc1", "OBSERVED_MEASUREMENT": 7.52}

Give pKi for `CCNCC(=O)Nc1c(Cl)cc(CN/C(N)=N/C(=O)c2c(-c3ccc(OC)cc3)nsc2C)cc1Cl` tested on Beta-secretase 1 (Homo sapiens). 8.00

Supply pKi measured with Beta-secretase 1 (Homo sapiens) for `COc1ccc(-c2noc(C)c2C(=O)/N=C(\N)NCc2cc(Cl)c(O)c(Cl)c2)cc1` . 6.32

Fetch value of pKi on Beta-secretase 1 (Homo sapiens) for `COc1ccc(-c2nsc(C)c2C(=O)NC(N)=NCc2cc(C)c(NC(=O)CN(C)C)c(Cl)c2)cc1` . 7.70

Fill in: pKi on Beta-secretase 1 (Homo sapiens), entry `Cc1onc(-c2ccccc2)c1C(=O)NC(N)=NCc1ccc(Cl)c(Cl)c1` 5.06

Enter measured pKi, system Beta-secretase 1 (Homo sapiens), for the molecule shown: `COc1ccc(-c2nsc(C)c2C(=O)/N=C(\N)NCc2cc(Cl)cc(Cl)c2)cc1` 6.54

Write down the reported pKi (system: Beta-secretase 1 (Homo sapiens)) of `CCNCC(=O)Nc1c(C)cc(CN/C(N)=N/C(=O)c2c(-c3ccc(OC)cc3)nsc2C)cc1Cl` 7.70

# return pKi for `COc1ccc(-c2[nH]nc(C)c2C(=O)/N=C(\N)NCc2cc(Cl)cc(Cl)c2)cc1` , test system: Beta-secretase 1 (Homo sapiens) 6.68
